Recorded values, source ChEMBL document CHEMBL5053514.

# method-summary: Cytotoxicity against MDCK cells assessed as reduction in cell viability measured after 48 hrs by CCK8 assay
# Format: cell-based, Canis lupus familiaris
# measurement-parameters: dog, read-out: TC50
experimental-readout: CC50 at 48 h

Recorded CC50 at 48 h, per entry:
1) O=C1c2c(O)c(=O)ccn2N(C2c3ccccc3C=Cc3ccc(F)cc32)[C@@H]2COCCN12 (mixture of isomers); > 200 µM
2) O=C1c2c(O)c(=O)ccn2N(C2c3ccccc3C=Cc3ccc(Br)cc32)[C@@H]2COCCN12 (mixture of isomers); > 200 µM
3) O=C1c2c(O)c(=O)ccn2N(C2c3ccccc3C=Cc3c(Cl)cccc32)[C@@H]2COCCN12 (mixture of isomers); 8.53 µM

Now consider a different compound.
Q: # get_value(readout='CC50 at 48 h', item= COc1ccc2c(c1)C(N1[C@@H]3COCCN3C(=O)c3c(O)c(=O)ccn31)c1ccccc1C=C2 (mixture of isomers) )
A: > 200 µM

====

# method-summary: AUC (0 to t) in Sprague-Dawley rat at 5 mg/kg, po measured after 24 hrs by LC-MS/MS analysis
# Assay type: ADME, organism-based
# Parameters: time 24 hrs, dose 5 mg/kg, route po
# measurement-parameters: in vivo
experimental-readout: AUC(0-t) at 24 h (ng·h/mL)
Give bare numbers, in ng·h/mL.

Q: # get_value(readout='AUC(0-t) at 24 h', item= O=C1c2c(O)c(=O)ccn2N(C2c3ccccc3C=Cc3ccccc32)[C@@H]2COCCN12 )
A: 295

====

Give selectivity ratio for every item shown.
# method-summary: Selectivity index, ratio of TC50 for MDCK cells to IC50 for antiviral activity against Influenza A virus (A/Fort Monmouth/1/1947(H1N1)) infected in MDCK cells
# Type: toxicity, cell-based
# measurement-parameters: dog, read-out: Selectivity Index
Answers are plain numbers.

Recorded selectivity ratio, per entry:
1) O=C1c2c(O)c(=O)ccn2N(C2c3ccccc3C=Cc3c(Cl)cccc32)[C@@H]2COCCN12 (mixture of isomers); 14500
2) O=C1c2c(O)c(=O)ccn2N(C2c3ccccc3C=Cc3ccc(Cl)cc32)[C@@H]2COCCN12 (mixture of isomers); 1440
3) O=C1c2c(O)c(=O)ccn2N(C2c3ccccc3C=Cc3cc(Cl)ccc32)[C@@H]2COCCN12 (mixture of isomers); 2670
4) O=C1c2c(O)c(=O)ccn2N(C2c3ccccc3C=Cc3cc(F)ccc32)[C@@H]2COCCN12 (mixture of isomers); 117000
5) O=C1c2c(O)c(=O)ccn2N(C2c3ccccc3C=Cc3ccccc32)[C@@H]2COCCN12; 450000
6) O=C1c2c(O)c(=O)ccn2N(C2c3ccccc3C=Cc3c(F)cccc32)[C@@H]2COCCN12 (mixture of isomers); 49600
7) Cc1ccc2c(c1)C(N1[C@@H]3COCCN3C(=O)c3c(O)c(=O)ccn31)c1ccccc1C=C2 (mixture of isomers); 1330

Q: # get_value(readout='selectivity ratio', item= O=C1c2c(O)c(=O)ccn2N(C2c3ccccc3C=Cc3cc(Br)ccc32)[C@@H]2COCCN12 (mixture of isomers) )
A: 2050

====

Give selectivity ratio for every item shown.
# method-summary: Selectivity index, ratio of TC50 for MDCK cells to IC50 for antiviral activity against Influenza A virus (A/WUHAN/359/1995(H3N2)) infected in MDCK cells
# Assay type: toxicity, cell-based
# measurement-parameters: dog, read-out: Selectivity Index

1. O=C1c2c(O)c(=O)ccn2N(C2c3ccccc3C=Cc3c(F)cccc32)[C@@H]2COCCN12 (mixture of isomers); 34000
2. O=C1c2c(O)c(=O)ccn2N(C2c3ccccc3C=Cc3cc(Br)ccc32)[C@@H]2COCCN12 (mixture of isomers); 1440
3. Cc1ccc2c(c1)C(N1[C@@H]3COCCN3C(=O)c3c(O)c(=O)ccn31)c1ccccc1C=C2 (mixture of isomers); 472
4. O=C1c2c(O)c(=O)ccn2N(C2c3ccccc3C=Cc3cc(Cl)ccc32)[C@@H]2COCCN12 (mixture of isomers); 4090
5. O=C1c2c(O)c(=O)ccn2N(C2c3ccccc3C=Cc3ccc(Br)cc32)[C@@H]2COCCN12 (mixture of isomers); > 7490
6. COc1ccc2c(c1)C(N1[C@@H]3COCCN3C(=O)c3c(O)c(=O)ccn31)c1ccccc1C=C2 (mixture of isomers); > 1560

Now consider a different compound.
Q: # get_value(readout='selectivity ratio', item= O=C1c2c(O)c(=O)ccn2N(C2c3ccccc3C=Cc3ccc(Cl)cc32)[C@@H]2COCCN12 (mixture of isomers) )
A: 1330

====

# method-summary: Half life in rat liver microsomes in presence of NADPH generating system by LC-MS/MS analysis
# Assay type: ADME, Microsome
experimental-readout: half-life (h)
Numbers only, in h.

Q: # get_value(readout='half-life', item= O=C1c2c(O)c(=O)ccn2N(C2c3ccccc3C=Cc3ccccc32)[C@@H]2COCCN12 )
A: 73.8

====

# method-summary: Half life in mouse liver microsomes in presence of NADPH generating system by LC-MS/MS analysis
# Type: ADME, Microsome
experimental-readout: half-life (h)
Numbers only, in h.

Q: # get_value(readout='half-life', item= O=C1c2c(O)c(=O)ccn2N(C2c3ccccc3C=Cc3ccccc32)[C@@H]2COCCN12 )
A: 31.4

====

Give CC50 at 48 h for every item shown.
# method-summary: Cytotoxicity against MDCK cells assessed as reduction in cell viability measured after 48 hrs by CCK8 assay
# Assay type: cell-based, Canis lupus familiaris
# measurement-parameters: dog, read-out: TC50
One number for each entry, in µM.

Recorded CC50 at 48 h, per entry:
1. O=C1c2c(O)c(=O)ccn2N(C2c3ccccc3C=Cc3cc(Cl)ccc32)[C@@H]2COCCN12 (mixture of isomers); 19.2
2. O=C1c2c(O)c(=O)ccn2N(C2c3ccccc3C=Cc3cc(Br)ccc32)[C@@H]2COCCN12 (mixture of isomers); 21.7
3. O=C1c2c(O)c(=O)ccn2N(C2c3ccccc3C=Cc3c(F)cccc32)[C@@H]2COCCN12 (mixture of isomers); 19.4
4. Cc1ccc2c(c1)C(N1[C@@H]3COCCN3C(=O)c3c(O)c(=O)ccn31)c1ccccc1C=C2 (mixture of isomers); 52.4

# batch size: 3; output CC50 at 48 h per entry
1. O=C1c2c(O)c(=O)ccn2N(C2c3ccccc3C=Cc3ccccc32)[C@@H]2COCCN12
2. O=C1c2c(O)c(=O)ccn2N(C2c3ccccc3C=Cc3ccc(Cl)cc32)[C@@H]2COCCN12 (mixture of isomers)
3. O=C1c2c(O)c(=O)ccn2N(C2c3ccccc3C=Cc3cc(F)ccc32)[C@@H]2COCCN12 (mixture of isomers)

A:
1. 189
2. 20.1
3. 59.5

====

# method-summary: Tmax in Sprague-Dawley rat at 5 mg/kg, po measured after 24 hrs by LC-MS/MS analysis
# Type: ADME, organism-based
# measurement-parameters: in vivo
experimental-readout: Tmax (min)
One number for each entry, in min.

Q: # get_value(readout='Tmax', item= O=C1c2c(O)c(=O)ccn2N(C2c3ccccc3C=Cc3ccccc32)[C@@H]2COCCN12 )
A: 49.8

====

# method-summary: AUC (0 to infinity) in Sprague-Dawley rat at 5 mg/kg, po measured after 24 hrs by LC-MS/MS analysis
# Type: ADME, organism-based
# Design: time 24 hrs, dose 5 mg/kg, route po
# measurement-parameters: in vivo
experimental-readout: AUC(0-inf) (ng·h/mL)
Answers are plain numbers, in ng·h/mL.

Q: # get_value(readout='AUC(0-inf)', item= O=C1c2c(O)c(=O)ccn2N(C2c3ccccc3C=Cc3ccccc32)[C@@H]2COCCN12 )
A: 311

====

Give selectivity ratio for every item shown.
# method-summary: Selectivity index, ratio of TC50 for MDCK cells to IC50 for antiviral activity against Influenza A virus (A/WUHAN/359/1995(H3N2)) infected in MDCK cells
# Format: toxicity, cell-based
# measurement-parameters: dog, read-out: Selectivity Index
One number for each entry.

1. O=C1c2c(O)c(=O)ccn2N(C2c3ccccc3C=Cc3ccccc32)[C@@H]2COCCN12; 497000

# batch size: 2; output selectivity ratio per entry
1. O=C1c2c(O)c(=O)ccn2N(C2c3ccccc3C=Cc3cc(F)ccc32)[C@@H]2COCCN12 (mixture of isomers)
2. O=C1c2c(O)c(=O)ccn2N(C2c3ccccc3C=Cc3c(Cl)cccc32)[C@@H]2COCCN12 (mixture of isomers)

A:
1: 72600; 2: 16100

====

# method-summary: Selectivity index, ratio of TC50 for MDCK cells to IC50 for antiviral activity against Influenza A virus (A/Fort Monmouth/1/1947(H1N1)) infected in MDCK cells
# Type: toxicity, cell-based
# measurement-parameters: dog, read-out: Selectivity Index
Give selectivity ratio for every item shown.

1. O=C1c2c(O)c(=O)ccn2N(C2c3ccccc3C=Cc3ccc(Br)cc32)[C@@H]2COCCN12 (mixture of isomers); > 10300
2. O=C1c2c(O)c(=O)ccn2N(C2c3ccccc3C=Cc3ccc(F)cc32)[C@@H]2COCCN12 (mixture of isomers); > 68700

Q: # get_value(readout='selectivity ratio', item= COc1ccc2c(c1)C(N1[C@@H]3COCCN3C(=O)c3c(O)c(=O)ccn31)c1ccccc1C=C2 (mixture of isomers) )
A: > 711
